All figures here come from paper PMC3817407.

Experimental system: T1, ECF12_807
T1 chain: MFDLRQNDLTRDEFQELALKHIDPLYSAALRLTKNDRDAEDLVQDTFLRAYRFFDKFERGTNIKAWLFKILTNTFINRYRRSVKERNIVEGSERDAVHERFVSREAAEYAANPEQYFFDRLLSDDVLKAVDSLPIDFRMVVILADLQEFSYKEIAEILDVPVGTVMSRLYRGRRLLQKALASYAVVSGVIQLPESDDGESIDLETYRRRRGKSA
Classification field: enter satisfied for fold repression values not below 5, not satisfied for values below it.

| Binder | Group |
| --- | --- |
| AS20_992 (protein) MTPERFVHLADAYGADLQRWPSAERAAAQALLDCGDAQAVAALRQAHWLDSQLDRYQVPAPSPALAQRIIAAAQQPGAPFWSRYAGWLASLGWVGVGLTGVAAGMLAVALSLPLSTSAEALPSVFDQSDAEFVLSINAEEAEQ | not satisfied |
| AS15_524 (protein) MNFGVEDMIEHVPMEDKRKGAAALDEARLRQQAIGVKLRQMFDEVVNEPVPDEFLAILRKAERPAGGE | satisfied |
| AS27_4265 (protein) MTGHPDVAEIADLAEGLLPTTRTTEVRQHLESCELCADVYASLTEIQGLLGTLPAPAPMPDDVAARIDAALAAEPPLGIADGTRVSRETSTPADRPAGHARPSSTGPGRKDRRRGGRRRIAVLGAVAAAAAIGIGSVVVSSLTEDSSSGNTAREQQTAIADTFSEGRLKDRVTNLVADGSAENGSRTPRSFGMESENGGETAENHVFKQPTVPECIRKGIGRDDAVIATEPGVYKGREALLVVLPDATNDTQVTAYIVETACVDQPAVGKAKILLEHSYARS | satisfied |
| AS22_1147 (protein) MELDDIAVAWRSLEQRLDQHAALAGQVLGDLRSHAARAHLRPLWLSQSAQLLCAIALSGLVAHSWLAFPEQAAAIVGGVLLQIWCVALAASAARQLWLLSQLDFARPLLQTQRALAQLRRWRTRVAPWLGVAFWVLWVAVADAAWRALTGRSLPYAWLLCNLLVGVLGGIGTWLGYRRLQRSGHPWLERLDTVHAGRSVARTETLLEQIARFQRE | not satisfied |
| AS02_915 (protein) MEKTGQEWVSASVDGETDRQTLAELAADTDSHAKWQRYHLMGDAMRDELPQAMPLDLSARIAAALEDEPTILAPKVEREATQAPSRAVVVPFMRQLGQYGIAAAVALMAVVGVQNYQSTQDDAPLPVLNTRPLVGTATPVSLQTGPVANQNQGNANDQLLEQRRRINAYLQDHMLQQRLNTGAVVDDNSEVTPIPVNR | satisfied |
| AS25_1643_cl43 (protein) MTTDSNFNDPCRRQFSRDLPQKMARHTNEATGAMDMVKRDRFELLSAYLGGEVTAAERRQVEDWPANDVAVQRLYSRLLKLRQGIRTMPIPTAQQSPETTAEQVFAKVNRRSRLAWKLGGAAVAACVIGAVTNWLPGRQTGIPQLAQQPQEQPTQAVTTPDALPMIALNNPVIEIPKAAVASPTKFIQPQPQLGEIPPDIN | not satisfied |
| AS25_1645 (protein) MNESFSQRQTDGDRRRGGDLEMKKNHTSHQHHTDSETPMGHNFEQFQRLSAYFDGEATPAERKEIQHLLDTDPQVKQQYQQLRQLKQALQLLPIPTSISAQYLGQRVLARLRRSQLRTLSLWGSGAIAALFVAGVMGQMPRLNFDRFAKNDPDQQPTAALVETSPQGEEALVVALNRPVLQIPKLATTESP | satisfied |
| AS15_436 (protein) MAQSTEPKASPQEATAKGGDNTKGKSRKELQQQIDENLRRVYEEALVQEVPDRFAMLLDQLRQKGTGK | satisfied |
| AS16_3622 (protein) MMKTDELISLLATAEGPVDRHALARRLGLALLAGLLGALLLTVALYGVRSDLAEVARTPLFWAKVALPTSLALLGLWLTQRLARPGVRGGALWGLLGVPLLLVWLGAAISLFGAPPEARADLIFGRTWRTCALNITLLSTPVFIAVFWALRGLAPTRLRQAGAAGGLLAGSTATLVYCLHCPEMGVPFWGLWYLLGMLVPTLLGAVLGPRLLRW | satisfied |
| AS03_1244 (protein) MKQFDPDVNIRPKEDSIRHYSVPDDYFASFTDKLMAQIPAVKEENTVVVPSVALWPKLRPLLYLAASFLLMIGMFKAFSLFGVGSDTGRTTSTSAGLVALDHGDTRWSEDTDYRDFLHDNCAETVSDEWVLTDFSE | not satisfied |
| AS16_973 (protein) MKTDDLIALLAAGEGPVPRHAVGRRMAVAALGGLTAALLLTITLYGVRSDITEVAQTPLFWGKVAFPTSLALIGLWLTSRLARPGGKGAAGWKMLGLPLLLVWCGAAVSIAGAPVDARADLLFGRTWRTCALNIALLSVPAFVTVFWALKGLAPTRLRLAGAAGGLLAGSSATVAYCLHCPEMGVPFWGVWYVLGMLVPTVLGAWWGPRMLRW | not satisfied |
